Below are pIC50 values recorded for human thrombin (Homo sapiens, UniProt P00734).
Counter-ions that a name gives are not always drawn.
Just the number, please; pIC50 means minus log10 of the concentration in mol/L.

Sample records with pIC50:
query: Field request: pIC50 | item: O=C(NCc1ccccc1Cl)C1CCc2cnc(NCC(F)(F)c3cccc[n+]3[O-])c(=O)n21 (racemic)
result: 7.42

query: What do we get for `O=C(NCc1ccccc1F)[C@@H]1CCc2cnc(NCC(F)(F)c3cccc[n+]3[O-])c(=O)n21` ?
result: 7.80

query: Entry O=C(COc1ccccc1CNC(=O)C1CCc2cnc(NCC(F)(F)c3cccc[n+]3[O-])c(=O)n21)NCCc1ccccn1 (centres unmarked) [Example 15, hydrochloride] please
result: 8.85

query: Please do the same for O=C(NCc1cccs1)[C@@H]1CCc2cnc(NCC(F)(F)c3cccc[n+]3[O-])c(=O)n21 [Example 24, hydrochloride] as well.
result: 7.22

---
query: Would you kindly share the measured pIC50 for `O=C(NCc1c(F)ccc(F)c1F)[C@@H]1CCc2cnc(NCC(F)(F)c3cccc[n+]3[O-])c(=O)n21` ?
result: 7.96
